- Test system: aorta tissue
- protocol summary: Inhibition of calcium dependent smooth muscle contraction, aorta (P#176 Aorta)
- Parameters: species or system dog
- condition description: Canis lupus familiaris, 0.1 μM; 50 mM KCl contraction; read-out: P#176 Aorta % INHB/μM
I'd be grateful if you could share measured inhibition at 0.1 µM for these entries.
Answers are plain numbers, in %.

Below are some compounds; for each one, tell me its inhibition at 0.1 µM.
1. CC(=O)OCCOC(=O)C1=C(C)NC2=C(C1c1cccc(Cl)c1Cl)S(=O)(=O)CCN(C)C2 (centres unmarked)
2. CCOC(=O)C1=C(C)NC2=C(C1c1cccc(Cl)c1Cl)S(=O)(=O)CCN(C(C)C)C2 (centres unmarked)
3. CCOC(=O)C1=C(C)NC2=C(C1c1cccc([N+](=O)[O-])c1)S(=O)(=O)CCN(CC)C2 (centres unmarked)
4. CCOC(=O)C1=C(C)NC2=C(C1c1c(F)c(F)c(F)c(F)c1F)S(=O)(=O)CCNC2 (centres unmarked)
5. CCOC(=O)C1=C(C)NC2=C(C1c1cccc([N+](=O)[O-])c1)S(=O)(=O)CCNC2 (centres unmarked)

Result:
26
83
73
89
88

###

- Test system: aorta tissue
- protocol summary: Inhibition of calcium dependent smooth muscle contraction, aorta (P#176 Aorta)
- Design: species or system dog
- condition description: Canis lupus familiaris, 0.1 μM; 50 mM KCl contraction; read-out: P#176 Aorta % INHB/μM
Quick rule for you: inhibition at 0.1 µM at 40% or higher means Condition met, lower means Condition not met.

Consider the following illustrative entries.
{"molecule": "CCOC(=O)C1=C(C)NC2=C(C1c1cccc(Cl)c1Cl)S(=O)(=O)CCNC2 (stereo not drawn) [2,3-dichloro / H / ethyl]", "class": "Condition met"}
{"molecule": "CCOC(=O)C1=C(C)NC2=C(C1c1ccccc1C(F)(F)F)S(=O)(=O)CCN(C(=O)OC(C)(C)C)C2 (stereo not drawn) [2-CF3 / BOC / ethyl]", "class": "Condition not met"}
{"molecule": "CCCCCCCN1CCS(=O)(=O)C2=C(C1)NC(C)=C(C(=O)OCC)C2c1cccc(Cl)c1Cl (stereo not drawn) [2,3-dichloro / hept / ethyl]", "class": "Condition not met"}
{"molecule": "CCOC(=O)C1=C(C)NC2=C(C1c1cccc(Cl)c1Cl)S(=O)(=O)CCN(CC)C2 (stereo not drawn) [2,3-dichloro / Et / ethyl]", "class": "Condition met"}
{"molecule": "CCOC(=O)C1=C(C)NC2=C(C1c1c(F)c(F)c(F)c(F)c1F)S(=O)(=O)CCN(C(=O)OC(C)(C)C)C2 (stereo not drawn) [pentafluoro / BOC / ethyl]", "class": "Condition not met"}

Request: Is inhibition at 0.1 µM at least 40%? Consider CC(=O)OCCOC(=O)C1=C(C)NC2=C(C1c1cccc(Cl)c1Cl)S(=O)(=O)CCNC2 (stereo not drawn) [2,3-dichloro / H / 2-acetoxyethyl]
Result: Condition not met

Request: Please tell me: is the molecule CCCN1CCS(=O)(=O)C2=C(C1)NC(C)=C(C(=O)OCC)C2c1cccc(Cl)c1Cl (stereo not drawn) [2,3-dichloro / Pr / ethyl] at or over 40% in terms of inhibition at 0.1 µM?
Result: Condition met

Request: Kindly determine if inhibition at 0.1 µM recorded for CCOC(=O)C1=C(C)NC2=C(C1c1ccccc1C(F)(F)F)S(=O)(=O)CCNC2 (stereo not drawn) [2-CF3 / H / ethyl] is above or exactly 40%.
Result: Condition met

Request: Determine whether measured inhibition at 0.1 µM meets or exceeds 40% for CCOC(=O)C1=C(C)NC2=C(C1c1cccc3nonc13)S(=O)(=O)CCNC2 (stereo not drawn) [2,3-(2,1,3 oxadiazolyl) / H / ethyl]
Result: Condition not met
